Source of measurements: patent US4596802A

measurement.protocol: Acute toxicity, mortality within 24 hours, intraperitoneal
experimental.conditions: mouse, in vivo, ip, mice, dose of 300 mg/kg
measured.quantity: mortality at 24 h (%)
Write down the numeric answer in % and omit the unit.

molecule | unit.descriptor | mortality at 24 h
CN(C)CCNc1nnc(-c2ccccc2)s1 [Compound A, reference compound] | % | 70

Noted for CCN(CC)CCNc1nnc(-c2ccccc2)s1 [Compound B, reference compound] : its mortality at 24 h reads 90
